Taken from ChEMBL document CHEMBL1124545.

Molecular target: Muscarinic receptor M2 and M3 (Rattus norvegicus) (UniProt P08483+P10980)
Sequence (P08483 whole entry, looked up): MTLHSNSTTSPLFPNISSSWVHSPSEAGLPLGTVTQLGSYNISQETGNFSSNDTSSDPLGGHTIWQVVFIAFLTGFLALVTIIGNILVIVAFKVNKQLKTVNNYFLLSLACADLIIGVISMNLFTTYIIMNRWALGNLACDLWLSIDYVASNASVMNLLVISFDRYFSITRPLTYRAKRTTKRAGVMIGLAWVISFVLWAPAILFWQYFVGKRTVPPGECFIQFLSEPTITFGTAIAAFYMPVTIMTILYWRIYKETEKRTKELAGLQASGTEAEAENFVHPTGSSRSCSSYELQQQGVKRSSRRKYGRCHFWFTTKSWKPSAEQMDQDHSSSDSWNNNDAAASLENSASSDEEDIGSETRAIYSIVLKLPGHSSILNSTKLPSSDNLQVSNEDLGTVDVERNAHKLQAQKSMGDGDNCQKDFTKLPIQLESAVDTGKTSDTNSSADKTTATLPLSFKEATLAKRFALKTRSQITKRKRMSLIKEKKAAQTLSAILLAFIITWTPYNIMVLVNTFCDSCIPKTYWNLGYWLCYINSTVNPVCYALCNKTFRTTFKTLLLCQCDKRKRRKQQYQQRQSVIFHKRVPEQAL
Sequence (P10980 whole entry, looked up): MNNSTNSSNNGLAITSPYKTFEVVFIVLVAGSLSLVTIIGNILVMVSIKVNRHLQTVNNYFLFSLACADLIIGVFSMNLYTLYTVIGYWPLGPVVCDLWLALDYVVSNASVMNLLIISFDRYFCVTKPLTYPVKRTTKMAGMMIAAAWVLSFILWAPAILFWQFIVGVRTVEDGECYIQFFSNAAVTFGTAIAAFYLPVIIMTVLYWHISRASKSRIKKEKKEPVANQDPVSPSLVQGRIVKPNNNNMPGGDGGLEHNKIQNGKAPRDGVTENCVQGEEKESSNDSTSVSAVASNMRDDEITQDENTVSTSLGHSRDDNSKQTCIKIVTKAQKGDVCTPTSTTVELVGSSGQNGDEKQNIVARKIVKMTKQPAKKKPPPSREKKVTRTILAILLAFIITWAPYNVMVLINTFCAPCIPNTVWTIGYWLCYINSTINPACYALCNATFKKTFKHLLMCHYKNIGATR
Assay: Selectivity ratio for glandular muscarinic receptor 3 and cardiac muscarinic receptor 2 in rat
Mark condition not met for Ratio values under 5, and condition met for everything at or above.

As a guide, the following entries are already answered.
Task: Quick check: does CCN(CC)CC1CCCCN1CC(=O)N1c2ccccc2C(=O)Nc2cccnc21 (stereo in doubt; 28) have Ratio greater than or equal to 5?
Result: condition met

Task: Quick check: does CN(C)CC1CCCCN1CC(=O)N1c2ccccc2C(=O)Nc2cccnc21 (stereo unspecified) have Ratio greater than or equal to 5?
Result: condition met

Task: Quick check: does CCCCN(C)CC1CCCCN1CC(=O)N1c2ccccc2C(=O)Nc2cccnc21 (stereo unspecified) have Ratio greater than or equal to 5?
Result: condition not met

---
Task: Quick check: does CCN(CC)CC1CCCCN1CC(=O)N1c2ccccc2C(=O)Nc2cccnc21 (stereo in doubt; 29) have Ratio greater than or equal to 5?
Result: condition met
